Data credit: ChEMBL document CHEMBL4043166

System: COLO 205
Assay: Cytotoxicity against human COLO205 cells assessed as cell growth inhibition after 48 hrs by SRB assay
Assay type: functional, cell-based
Details: COLO 205, 48 h
QUANTITY: IC50 (µM)
# output: bare number, implied unit µM

[[record]]
compound_structure_string = "O=C1C(=O)N(CCCn2cc(COc3cc(=O)oc4ccccc34)nn2)c2ccc(Br)cc21"
measured_target = "COLO 205"
quantity = "IC50"
unit_of_measurement = "µM"
result = 13

[[record]]
compound_structure_string = "O=C1C(=O)N(CCCCn2cc(COc3cc(=O)oc4ccccc34)nn2)c2ccc(F)cc21"
measured_target = "COLO 205"
quantity = "IC50"
unit_of_measurement = "µM"
result = 9.11

[[record]]
compound_structure_string = "O=C1C(=O)N(CCn2cc(COc3cc(=O)oc4ccccc34)nn2)c2ccc(Br)cc21"
measured_target = "COLO 205"
quantity = "IC50"
unit_of_measurement = "µM"
result = 10.5


Param item = "O=C1C(=O)N(CCn2cc(COc3cc(=O)oc4ccccc34)nn2)c2ccccc21" ; retrieve measured IC50. 3.45
